- assayed_target: noradrenaline (NA) reuptake in synaptosomes (Rattus norvegicus, UniProt Q63380)
- Construct: in synaptosomes as described in WO 97/16451; from tissue
- Sequence (Q63380 1-617): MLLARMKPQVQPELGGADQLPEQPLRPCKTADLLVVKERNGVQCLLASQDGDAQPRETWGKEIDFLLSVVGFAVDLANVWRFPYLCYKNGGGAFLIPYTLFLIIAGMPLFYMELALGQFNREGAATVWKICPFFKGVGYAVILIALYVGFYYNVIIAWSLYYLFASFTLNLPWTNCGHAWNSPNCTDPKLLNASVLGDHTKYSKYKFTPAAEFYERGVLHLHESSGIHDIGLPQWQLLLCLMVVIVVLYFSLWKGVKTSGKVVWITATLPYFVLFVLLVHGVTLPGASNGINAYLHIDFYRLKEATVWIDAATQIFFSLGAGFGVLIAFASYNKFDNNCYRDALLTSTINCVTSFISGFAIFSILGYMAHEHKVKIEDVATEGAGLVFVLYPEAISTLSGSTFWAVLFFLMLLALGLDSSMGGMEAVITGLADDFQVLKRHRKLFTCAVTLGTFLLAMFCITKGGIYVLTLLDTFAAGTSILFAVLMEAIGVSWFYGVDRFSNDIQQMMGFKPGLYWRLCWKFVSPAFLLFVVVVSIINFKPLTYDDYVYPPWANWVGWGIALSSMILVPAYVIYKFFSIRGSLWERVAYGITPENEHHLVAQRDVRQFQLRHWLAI
- protocol_summary: Inhibition of noradrenaline (NA) reuptake in synaptosomes
- Assay type: biochemical
- experimental_setup: 3H-NA, read-out: NA-uptake IC50
Counter-ions that a name gives are not always drawn.
endpoint_name: pIC50
One number for each entry, as −log10 of the molar value.

[in] Observed pIC50 on noradrenaline (NA) reuptake in synaptosomes (Rattus norvegicus, UniProt Q63380) for COc1cc2ccc(O[C@@H]3C[C@H]4CC[C@@H](C3)N4)cc2oc1=O [IP2015, hydrochloride] , please.
[out] 8.42
